The origin of these recorded values is patent US9833497B2.

# maps each entry to its MIC C. diversus
Tested on: Citrobacter diversus
Assay: MIC against Gram-negative bacteria: Citrobacter diversus
Assay type: cell-based
Conditions: 10 h cultivation at 37° C., 5×10^5 CFU/mL, two-fold serial dilution
measurement_type: MIC C. diversus (µg/mL)

In [3]: df
Out[3]:
                                  substance  readout_unit  meas_value
0  PRT1169 (RDSQCDEATCNNGGTCYDEGDAFKCMCPGGWEGTTCN; listed as Homo sapiens)         µg/mL          50
1  PRT1063 (ELSPCRINNGGCQDLCLLTHQGHVNCSCRGGRILQDDLTCR; listed as Homo sapiens)         µg/mL        12.5
2  PRT1050 (HFSRCPKQYKHYCIKGRCRFVVAEQTPSCVCDEGYIGARCE; listed as Homo sapiens)         µg/mL        12.5
3  PRT1082 (GTNPCSVNNGDCSQLCLPTSETTRSCMCTAGYSLRSGQQACE; listed as Homo sapiens)         µg/mL          25
